// data source = ChEMBL document CHEMBL1201862

// reported GI50 per item
- Tested on: SK-MEL-28
- Procedure Summary: NCI tumour cell line growth inhibition, 48 h
Calls of active or inactive are those of the source. No stated cut-off is given here; in the data, active = GI50 up to about 1.1 µM and inactive = higher.
Measured Parameter: GI50

> print(dat)
                                   molecule       value.reported
1                       O=C1CSc2ccnc(=O)n21  > 100 µM (inactive)
2  CCOC(=O)C(C)c1nc2c(Cl)c3ncccc3cc2[nH]c1=O (stereo unspecified)  > 100 µM (inactive)
3  OC1CCCN(C2(c3cccs3)CCCCC2)C1 (stereo unspecified)  > 100 µM (inactive)
4  CC1(C)OC2C(CO)OC(n3ccc(=O)[nH]c3=O)C2O1 (stereo unspecified)  > 100 µM (inactive)
5  COc1cc2cnc3c4cc(OC(C)C)c(OC)cc4ccc3c2cc1OC  > 100 µM (inactive)
6  Clc1ccc(Oc2ccc(/N=C/c3ccc(Cl)cc3Cl)cc2Cl)cc1   34.2 µM (inactive)
